- system_tested: Pfs48/45 D3 (Plasmodium falciparum 3D7, UniProt Q8I6T1)
- Sequence (Q8I6T1 287-428): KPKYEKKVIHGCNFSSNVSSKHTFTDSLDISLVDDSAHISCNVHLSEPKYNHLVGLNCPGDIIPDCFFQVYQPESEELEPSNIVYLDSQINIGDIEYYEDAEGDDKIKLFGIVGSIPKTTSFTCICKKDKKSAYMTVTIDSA
- assay_name: ELISA
- experimental_context: both partners purified
value_type: binding result

RUPA-61 (antibody, V domains shown, human IgG1; source: recombinant human IgG1, 293T (Protein A purified) or GenScript) VH: QVQLVQSGAEVKKPGASVKVSCKASEDTFSSYYIHWVRQAPGQGLEWMGMMNPSGGGTRYTQKFQGRVTMTSDTSTSTVYMEVISLRSEDTAVYYCARVRKRDAYNNRNWGSVFGGMDVWGQGTTVTVSS VL: QSALTQPPSASGSPGQSVSISCTGTSSDVGGHDYVSWYQHHPGKAPKLMIYEVSKRPSGVPDRFSGAKSGNTASLTVSGLQAEDEADYYCSSFGGSNNLVFGGGTKVTVV
binds
